# assay.protocol: yeast display, Sf9 membrane polyspecificity reagent, FACS + sequencing; frameworks hold sequencing errors
measured.metric: polyreactivity (PSR sort gate)

Solved entries (count: 4):
{"columns": ["biopolymer.sequence", "measured.metric", "result"],
 "data": [
  ["QVQLVESGGGLVQAGGSLRLSCAASGRTFFYYAMGWYRQAPGKERELVAAISTNGGSTYYADSVKGRFTISRDNAKNTVYLQMNSLKPEDTAVYYCNTYATPHRSGGGLGGHYYWGQGTQVTVSS", "polyreactivity (PSR sort gate)", "low polyreactivity"],
  ["QLQLVESGGGLVQAGGSLRLSCAASGRIFYVNAMGWYRPAPGKERELVAAISRSGSSTYYADSVKGRFTISRDNAKNTVYLQMNSLKPEDTADYYCAARYYGRSQHHFDYWGQGTQVTVSS", "polyreactivity (PSR sort gate)", "high polyreactivity"],
  ["QLQLVESGGGLVQAGGSLRLSCAASGYTFYRYAMGWYRQAPGKERELVAAISSAGTTNYADSVKGRFTISRDNAKKTVYFQMNSLKPEDTAVYYCNKRGRNHNSLKYGYWGQGTQVTVSS", "polyreactivity (PSR sort gate)", "high polyreactivity"],
  ["QVKLVESGGGLVQAGGSLRLSCAASGSTINLYDMGSYIQAPGKERELVADISRGGSTNYADSVKGRFTITRDNAKNTVYLQMNSLIPEDTAVYYCAAFYFTYDFWTYSFAEYDYWGQGTQVTVSS", "polyreactivity (PSR sort gate)", "high polyreactivity"]
]}

In the following, a different sequence is considered.
Give the reported value of polyreactivity (PSR sort gate) for this record: QVQLVESGGGLVQAGGSLRLSCAASGGIFVPNDMGWYRQAPGKERELVAAIRDGGSTNYADSVKGRFTISRDNAKNTVYLQMNSLKPEDTAVYYCAADYSLALAKYDYWGQGTQVTVSS
low polyreactivity

----------
# assay.protocol: yeast display, Sf9 membrane polyspecificity reagent, FACS + sequencing; frameworks hold sequencing errors
measured.metric: polyreactivity (PSR sort gate)

Solved entries (count: 4):
{"columns": ["biopolymer.sequence", "measured.metric", "result"],
 "data": [
  ["QVQLVESGGGLVQAGGSLRLSCAASGRTFQQNAMGWYRQAPGKERELVAAINSRGGRTYYADSVKGRFTISRDNAKNTVYLQMNSLKPEDTAVYYCNAVVYTRPYTRPRYRYDYWGQGTQVTVSS", "polyreactivity (PSR sort gate)", "high polyreactivity"],
  ["QVQLVESGGGLVQAGGSLRLSCAASGSIFVGYAMGWYRQAPGKERELVAAISRSGGRTYYADSVKGRFTISRDNAKNTVYLQMISLKPEDTAVYYCARQRYEYRTTYYYWGQGTQVTVSS", "polyreactivity (PSR sort gate)", "high polyreactivity"],
  ["QVQLVESGGGLVQAGGSLRLSCAASGFTLWLNAMGWYRQAPGTERELVAAITTSDDGTYYADSVKGRFTISRDNAKNTVYLQMNSLKPEDTAVYYCAADYYSVLYDYWGQGTQVTVSS", "polyreactivity (PSR sort gate)", "low polyreactivity"],
  ["QVQLVESGGGLVQAGGSLRLSCAASGLTFYVNAMGWYRQAPGKEMELVAAITRGGSTNYADSVKGRFTISRDNAKNTVYLQMNSLKPVDTAVYYCNARKRYHSRYSGGYREGYWGQGTQVTVSS", "polyreactivity (PSR sort gate)", "low polyreactivity"]
]}

In the following, a different sequence is considered.
Give the reported value of polyreactivity (PSR sort gate) for this record: QVQLVESGGGLVQAGGSLRLSCASSGIILYAYAKGWYRQAPGKERELVAAISRSGGRTYYADSVKGRFTISRDKAKNTVYLQMNSLKPEDTAVYYCATVTRYPDGHRFDYWGQGTQVTVSS
high polyreactivity

----------
# assay.protocol: yeast display, Sf9 membrane polyspecificity reagent, FACS + sequencing; frameworks hold sequencing errors
measured.metric: polyreactivity (PSR sort gate)

Solved entries (count: 5):
{"columns": ["biopolymer.sequence", "polyreactivity (PSR sort gate)"],
 "data": [
  ["QVQLVESVGGLVQAGGSLRLSCAASGYNFWSNTMGWYRQAPGKERELVAAISQSTASTYYADSVKGRFTISRDNAKNTVYLQMNSLKPEDTAVYYCAAYYNFGDYEYDYWGQGTQVTVSS", "low polyreactivity"],
  ["QVQLVESGGGLVQAGGSLRLSCAASGRIFPKNTMGWYRQAPGKERELVAAINWNGGRTYYADSVKGRFTISRDNAKNTVYLQMNSLKPEDTAVYYCAKDGYWDFDYWGQGTQVTVSS", "low polyreactivity"],
  ["QVQLVESGGGLVQAGGSLRLSCAASGSTFIYYAMGWYRQAPGKEREFVAAISYRGGSTYYADSVKGRFTISRDNAKYTVYLQMNSLKPEDTAVYYCAASYRSWWETYLRGDYWGQGTQVTVSS", "high polyreactivity"],
  ["QVQLVESGGGLVQAGGSLRLSCAASGRTFLRNTMGWYRQAPGKERELVAAISRSGATTYYADSVKGRFTISRDNAKNTVYLQMNSLKPADTAVYYCAALGQGRTSATSFVDYEYWGQGTQVTVSS", "high polyreactivity"],
  ["QVQLVESGGGLVQAGGSLRLSGAASGSIFSVYAMGWYRQAPGKERELVASISRSGGSTYYADSVKGRFTISRDNAKNTVYLQMNSLKPEDTAVYYCAAYHPIQEYDYWGQGTQVTVSS", "high polyreactivity"]
]}

Give the reported value of polyreactivity (PSR sort gate) for this record: QVQLVESGGGLVQAGGSLRLSCAASGSIFGYNAMGWYRQAPGKERELVAAISLTTGSTYYADSVKGRFTISRDNAKNTVYLQMNCLKPEDTAVYYCAAVDADYYYWGQGTQVTVSS
high polyreactivity

Give the reported value of polyreactivity (PSR sort gate) for this record: QVQLVESGGGLVQAGGSLRLSCAASGSIFEGYAMGWYRQAPGKERELVAAISRSGGSTYYADSVKGRFTISRDNAKNTVYLQMNSLKPEDTAVYYCAARKAIDYQGRHDHWGQGTQVTVSS
low polyreactivity

Give the reported value of polyreactivity (PSR sort gate) for this record: QVQLVESGGGLVQAGGSLRLSCAASGSIFYKNVMGWYRQAPGKEREFVAAISSSGGSTYYADSVKGRFTISRDNAKNTVYLQMNSLKPEDTAVYYCAATGWGLFRRRYDYWGQGTQVTVSS
low polyreactivity

Give the reported value of polyreactivity (PSR sort gate) for this record: QVQLVESGGGLVQAGGSLRLSCAASGSTFVSNAMGWYRQAPGKERELVARITGSGGNTYYADSVKGRFTISRDNAKNTVYLQMNSLKPEDTAVYYCNADVFRKFGSPSAYKSHRYDYWGQGTQVTVSS
low polyreactivity

Give the reported value of polyreactivity (PSR sort gate) for this record: QVQLVESGGGLVQAGGSLRLSCAASGRIIYGYAMGWYRQAPGKERELVAAISASGGRTYYADSVKGRFTISRDHAKNTVYLQMNSLKPEDTAVYYCAADDVGPPDFYYWGQGTQVTVSS
high polyreactivity

Give the reported value of polyreactivity (PSR sort gate) for this record: QVQLVESGGGLVQAGGSLRLSCAASGLTFQSYDMGWYRQAPGKERELVAAISRRGGSTYYADSVKGRFTISRDNAKNTVYLQMNSLKPEDTAVYYCAAEYRSWSWRMDYWGQGTQVTVSS
high polyreactivity

Give the reported value of polyreactivity (PSR sort gate) for this record: QVQLVESAGRLVQAGGSLRLSCAASGSTYSSNAMGGYRQEPGKERELVAAITTSGGSTYYADSVKGRFTISRDNAKNTVYLQMNSLIPADTAVYYCAADLVHAYQWSIFLYGYWGLGTQVTVSS
low polyreactivity

----------
# assay.protocol: yeast display, Sf9 membrane polyspecificity reagent, FACS + sequencing; frameworks hold sequencing errors
measured.metric: polyreactivity (PSR sort gate)

Solved entries (count: 5):
{"columns": ["biopolymer.sequence", "polyreactivity (PSR sort gate)"],
 "data": [
  ["QVQLVESGGGLVQAGGSLRLICDDSGSILSYNTMGWYRQAPGKEREFVAGITYSGSRTYYADSVKGRFTISRDNAKNTVSLQMNSLKPVDTAVYYCAKRNYYRMYWGQGTQVTVSS", "high polyreactivity"],
  ["QVQLQESGGGLVQAGGSLLSCAASGTISYYREMGWYRQAPGKERELVAGIGVGTITYYADSVKGRFTISRDNAKNTVYLQMNSLKPEATAVYYCAAHIDGNDSHAYWGQGTQVTVSS", "low polyreactivity"],
  ["QVQLVESGGGLVQAGGSLRLSCAASGRIFDRNAMVWYRQEPWKERELVAAIDDSGGDTSYADSVKGRFTISRDNAKNTVYLQMNSLKPEDTAVYYCNAGYADFVTYPRYYYWGQGTQVTLSS", "low polyreactivity"],
  ["QVQLVESGGGLFQAGGSLRLSCAASGSISIKNAMGWYRQAPGKERELVATITYNGGSTYYADSVKGRFTISRDNAKNTVYLQMNSLKPEDTAVYYCARDAFEPYDVGEYYYWGQGTQVTVSS", "low polyreactivity"],
  ["QVQLVESGGGLVQAGGSLRLSCAASGSIFNYYVMGWYRQAPGKERELVAGIRWNGGSTYYADSVKGRFTISRDNAKNTVYLQMNSLKPEDTAVYDCAAQAWWGYYSRGPMDYWGQGTQVTVSS", "low polyreactivity"]
]}

Give the reported value of polyreactivity (PSR sort gate) for this record: QVQLVESGGGLVQAGGSLRLSCAASGSTFNEYVMGWYRQAPGKERELVAAITGGGGRTYYADSVKGRFTISRDNAKITVYLQMNSQKPEDTAFYDCAKRYLYGTYWGFFRYDYWGQGTQVTVSS
low polyreactivity

Give the reported value of polyreactivity (PSR sort gate) for this record: QVQLVESGGGLFQAGGSLRLSCAASGSTFPYNAMGWYRQAPGKERELVAAITWRAGRTYYADSVKGRFTISRDNAKNTVYLQMNSLKPEDTAVYSCAKSYQRGVNHYEYWGQGTQVTVSS
high polyreactivity

Give the reported value of polyreactivity (PSR sort gate) for this record: QVQLVESGGGLVQAGGSLRLSCAASGSTFRSYAMGWYRQAPGKERELVARISYRTGSTYYADSVKGRFTISRDNAKNTVYLQMNSLKPEDTAVYYCATRGSYVGGLYDYWGQGTQVTVSS
high polyreactivity

Give the reported value of polyreactivity (PSR sort gate) for this record: QVQLVESGGGLVQAGGSLRLSCAASGFTFATYTIGWYRPAPGKERELVAAISWSGGSTYYADSVKGRFTISRDNAKNTVYLQMNSLKPEDTAFYYCAAQRPSALRLYSSQRTIFGYWGQGTQVTVSS
high polyreactivity

Give the reported value of polyreactivity (PSR sort gate) for this record: QVQLVESGGGLVQAGGSLRISCAPSGSIFSDYAMGWYRQAPGKERELVATISSSGSTNYADSVKGRFTISRDNAKNTVYLQMNSLKPEDTAVYYCAAARLFAMDYWGQGTQVTVSS
low polyreactivity

Give the reported value of polyreactivity (PSR sort gate) for this record: QVQLVESGGGLVQAGGSLRVSCAASGLTFDTNAMGWYRQARGKERELVAAITDSGDSTYYADSVKGRFTISRDNAKNTVYLQMNRLKPEDSAVYYCAARRSNLAWGRRRMYYWGQGTQVTVSS
high polyreactivity

Give the reported value of polyreactivity (PSR sort gate) for this record: QVQLVESGGGLVQAGGSLRLSCAASGITFYPYAMGWYRQAPGTERELVAAITGSGGRTYYADSVKGRFTISRDNAKNTVYLQMNSLKPEDTAVYYCAKVARYPDMGYWGQGTQVTVSS
high polyreactivity
